Quick reference for IC50 among some molecules
Target: PSMA (Homo sapiens, UniProt Q04609)
Construct: PSMA-positive LNCAP cells (300265; Cell Lines Service, Eppelheim, Germany)
Sequence (Q04609 whole entry): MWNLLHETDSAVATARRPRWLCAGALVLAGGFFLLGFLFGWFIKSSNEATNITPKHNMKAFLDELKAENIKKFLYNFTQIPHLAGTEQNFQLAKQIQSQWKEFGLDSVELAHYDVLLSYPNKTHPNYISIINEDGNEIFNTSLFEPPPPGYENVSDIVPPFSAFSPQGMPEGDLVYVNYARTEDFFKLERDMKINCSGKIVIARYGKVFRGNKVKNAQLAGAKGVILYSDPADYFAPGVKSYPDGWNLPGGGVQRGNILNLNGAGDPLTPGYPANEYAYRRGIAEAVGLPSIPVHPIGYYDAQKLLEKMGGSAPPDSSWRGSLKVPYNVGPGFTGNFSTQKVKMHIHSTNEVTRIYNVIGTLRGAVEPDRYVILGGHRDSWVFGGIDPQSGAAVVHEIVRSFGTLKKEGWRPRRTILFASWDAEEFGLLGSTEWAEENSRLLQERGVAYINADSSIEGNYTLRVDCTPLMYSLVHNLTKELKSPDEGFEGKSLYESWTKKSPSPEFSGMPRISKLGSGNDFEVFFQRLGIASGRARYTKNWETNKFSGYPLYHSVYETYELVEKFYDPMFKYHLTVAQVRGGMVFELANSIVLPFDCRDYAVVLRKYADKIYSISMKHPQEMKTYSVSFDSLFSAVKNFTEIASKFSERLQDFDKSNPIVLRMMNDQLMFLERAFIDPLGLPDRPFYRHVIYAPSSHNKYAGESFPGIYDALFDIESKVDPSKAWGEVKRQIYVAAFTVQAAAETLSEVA
Assay: PSMA affinity (IC50), competition with ([125I]I-BA)KuE on LNCaP cells
Conditions: natLu complexes; LNCaP cells 150000 cells/well, ([125I]I-BA)KuE c=0.2 nM, 1 h, 4 °C, HBSS+1% BSA; mean±SD, n=3; read-out: IC50 (binding affinity to PSMA)
Report only the number, with the unit nM understood.

Here are 5 molecules together with their reported answers.
[
  {
    "Molecule": "CC(C)(C)[Si](O)(c1ccc(C(=O)NC[C@@H](NC(=O)CCCCCNC(=O)CCCNC(=O)CC[C@@H](NC(=O)CCC(NC(=O)N[C@@H](CCC(=O)O)C(=O)O)C(=O)O)C(=O)O)C(=O)NCC(=O)N[C@@H](CCCCNC(=O)CC[C@@H](C(=O)O)N2CCN(CC(=O)O)CCN(CC(=O)O)CCN(CC(=O)O)CC2)C(=O)O)cc1)C(C)(C)C (stereo partly drawn) [E104-SiOH]",
    "Readout Label": "IC50",
    "Measured Number": 9
  },
  {
    "Molecule": "CC(C)(C)[Si](O)(c1ccc(C(=O)NC[C@@H](NC(=O)CC[C@@H](C(=O)O)N2CCN(CC(=O)O)CCN(CC(=O)O)CCN(CC(=O)O)CC2)C(=O)N[C@H](CCCCNC(=O)CCC(=O)NCCC[C@@H](NC(=O)CC[C@H](NC(=O)N[C@@H](CCC(=O)O)C(=O)O)C(=O)O)C(=O)O)C(=O)O)cc1)C(C)(C)C [7.3-SiOH]",
    "Readout Label": "IC50",
    "Measured Number": 5.9
  },
  {
    "Molecule": "CC(C)(C)[Si](O)(c1ccc(C(=O)NC[C@@H](NC(=O)CC[C@@H](C(=O)O)N2CCN(CC(=O)O)CCN(CC(=O)O)CCN(CC(=O)O)CC2)C(=O)N[C@H](CO)C(=O)NCCC(=O)NCCC(=O)NCCC[C@@H](NC(=O)CC[C@H](NC(=O)N[C@@H](CCC(=O)O)C(=O)O)C(=O)O)C(=O)O)cc1)C(C)(C)C [C007-SiOH]",
    "Readout Label": "IC50",
    "Measured Number": 7.1
  },
  {
    "Molecule": "CC(C)(C)[Si](O)(c1ccc(C(=O)NC[C@@H](NC(=O)CC[C@@H](C(=O)O)N2CCN(CC(=O)O)CCN(CC(=O)O)CCN(CC(=O)O)CC2)C(=O)NCC(=O)N[C@@H](CCCCNC(=O)CCC(=O)NCCC[C@@H](NC(=O)CC[C@H](NC(=O)N[C@@H](CCC(=O)O)C(=O)O)C(=O)O)C(=O)O)C(=O)O)cc1)C(C)(C)C [E102-SiOH]",
    "Readout Label": "IC50",
    "Measured Number": 8.4
  },
  {
    "Molecule": "CC(C)(C)[Si](O)(c1ccc(C(=O)N[C@H](CCC(=O)NC[C@@H](NC(=O)CC[C@@H](C(=O)O)N2CCN(CC(=O)O)CCN(CC(=O)O)CCN(CC(=O)O)CC2)C(=O)NCCCCCC(=O)NCCC[C@@H](NC(=O)CC[C@H](NC(=O)N[C@@H](CCC(=O)O)C(=O)O)C(=O)O)C(=O)O)C(=O)O)cc1)C(C)(C)C [P105-SiOH]",
    "Readout Label": "IC50",
    "Measured Number": 9.8
  }
]

Now turn to the next molecule.
Query: Please give the measured IC50 for this molecule: CC(C)(C)[Si](F)(c1ccc(C(=O)NC[C@@H](NC(=O)CC[C@@H](C(=O)O)N2CCN(CC(=O)O)CCN(CC(=O)O)CCN(CC(=O)O)CC2)C(=O)N[C@H](CCCCNC(=O)CCC(=O)NCCC[C@@H](NC(=O)CC[C@H](NC(=O)N[C@@H](CCC(=O)O)C(=O)O)C(=O)O)C(=O)O)C(=O)O)cc1)C(C)(C)C [rhPSMA-7.3, reference compound]
Response: 8
